Target: HLA-A*32:01
Assay: IEDB peptide-MHC binding, purified MHC/competitive/radioactivity; filed as Kd, often an IC50 or EC50 that approximates it; bounds were set here for any values at or beyond the usual limits of such assays
Conditions: source organism: Dengue virus 3 Singapore/8120/1995
MEASURED_ENDPOINT: pKd
The meaning of pKd here: minus log10 of the concentration in molar units.

# input Sample MIAGVLFTF — what was its pKd?
# output 8.73

###

Biological target: HLA-A*24:03
Experiment: IEDB peptide-MHC binding, purified MHC/direct/fluorescence; filed as Kd, often an IC50 or EC50 that approximates it; bounds were set here for any values at or beyond the usual limits of such assays
Settings: source organism: Vibrio cholerae O395
pKd: −log10 of the molar value.
MEASURED_ENDPOINT: pKd

# input Sample VVSEIDLQW — what was its pKd?
# output ≤ 4.70

###

Biological target: HLA-A*02:03
Experiment: IEDB peptide-MHC binding, purified MHC/direct/fluorescence; filed as Kd, often an IC50 or EC50 that approximates it; bounds were set here for any values at or beyond the usual limits of such assays
Conditions: source organism: Limestone Canyon virus
MEASURED_ENDPOINT: Kd

# input Sample ATKDSFQSF — what was its Kd?
# output ≥ 20 µM

###

Provide the recorded pKd for the entries that follow.
Target: HLA-A*11:01
Assay: IEDB peptide-MHC binding, purified MHC/competitive/radioactivity; filed as Kd, often an IC50 or EC50 that approximates it; bounds were set here for any values at or beyond the usual limits of such assays
Details: source organism: Vaccinia virus WR
The meaning of pKd here: minus log10 of the concentration in molar units.

# input Sample ITLDTMDDMK — what was its pKd?
# output 7.37

# input Sample IFPANINDK — what was its pKd?
# output 5.96

# input Sample LSKIPYLRNY — what was its pKd?
# output 5.58

# input Sample FVSLVKKNK — what was its pKd?
# output 6.92

# input Sample TSDSKSIENK — what was its pKd?
# output 6.27

# input Sample TSPGEIKPK — what was its pKd?
# output 5.98

# input Sample ISSRVDRYSK — what was its pKd?
# output 6.54

# input Sample MSHLKVALY — what was its pKd?
# output 5.77

# input Sample ILMIFISSFL — what was its pKd?
# output 5.75

# input Sample LSIVVDINK — what was its pKd?
# output 7.62

# input Sample VTDLENRLK — what was its pKd?
# output 7.59

# input Sample MLNRVQILMK — what was its pKd?
# output 6.89

# input Sample PSTDVNKQNK — what was its pKd?
# output 5.44

# input Sample HIKTIAVSVY — what was its pKd?
# output 5.08

# input Sample IASKINNNR — what was its pKd?
# output 6.48

# input Sample SISSVLTILY — what was its pKd?
# output 6.97

# input Sample SMFWDGMDY — what was its pKd?
# output 9.08

# input Sample AQYKCVTIKY — what was its pKd?
# output 7.10

# input Sample SLNRQTVSR — what was its pKd?
# output 5.87

# input Sample HTSVSAKQLR — what was its pKd?
# output 6.56

# input Sample VMHINSPFK — what was its pKd?
# output 9.65

###

Target: HLA-B*58:01
Assay: IEDB peptide-MHC binding, purified MHC/competitive/radioactivity; filed as Kd, often an IC50 or EC50 that approximates it; bounds were set here for any values at or beyond the usual limits of such assays
Details: source organism: Dengue virus 4 Philippines/H241/1956
MEASURED_ENDPOINT: pKd
The meaning of pKd here: minus log10 of the concentration in molar units.

# input I'm curious: which pKd was measured for ERSWNTGFDW tested on HLA-B*58:01?
# output 6.17

# input I'm curious: which pKd was measured for RAKGSRAIW tested on HLA-B*58:01?
# output 7.57

# input I'm curious: which pKd was measured for MAMTTVLSI tested on HLA-B*58:01?
# output 7.72
